Hey, just so you know, these numbers are from patent US6432688B1.

- Test system: amino alcohol dehydrogenase derived from Streptomyces virginiae IFO 12827
- Method summary: Substrate specificity, relative activity to various substrates
- Test settings: Substrate (Amino alcohols); activity to serinol as 100%; TABLE 3 printed a second time
For each record, write down the corresponding Relative activity (%).
Numbers only, in %.

Would you please look over these solved cases?
> print(dat)
                                   compound  result
1                       CCCC(N)CO (racemic)     103
2  CCC(N)CO (single isomer, unassigned; (+)) [(+)-2-amino-1-butanol]     109
3    Nc1ncccc1O [2-amino-3-hydroxypyridine]     136
4  N[C@H](CO)Cc1ccccc1 [(S)-(−)-2-amino-3-phenyl-1-propanol]     120
5                                CC(C)(N)CO     115

Now turn to the next compound.
Query: For `NC(CO)CO` , write its Relative activity (%).
Response: 100
